EXPERIMENTAL TARGET: recombinant CREBBP bromodomain (Homo sapiens)
Construct: recombinant CREBBP bromodomain obtained from BPS Bioscience, USA
Sequence (Q92793 1085-1192 limits assumed): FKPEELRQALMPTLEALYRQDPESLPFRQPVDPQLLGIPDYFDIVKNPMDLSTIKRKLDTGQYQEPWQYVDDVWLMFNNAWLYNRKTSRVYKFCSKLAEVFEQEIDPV
ASSAY NAME: CBP TR-FRET displacement assay
CONDITION LABEL: dose-response, read-out: IC50 (group A, B, C)
RECORDED ENDPOINT: IC50

Cc1cc2c(N3CCCc4cc(-c5cnn(C)c5)c(C(F)F)cc43)nc(N3CCN(C)CC3)cc2n(C)c1=O = < 50 nM
Cc1cc2c(N3CCN(C)c4cc(-c5cnn(C)c5)ncc43)cc(OCC(F)F)cc2n(C)c1=O = 51 to 100 nM
CC(=O)NS(=O)(=O)c1cc2c(cc1-c1cnn(C)c1)N(C)CCN2c1cccc2c1cc(C)c(=O)n2C = < 50 nM

Req: Supply measured IC50 of Cc1ccc2[nH]c(=O)c(C)cc2c1N1CCN(C)c2cc(-c3cnn(C)c3)c(C#N)cc21 in your reply.
Resp: < 50 nM

Req: Supply measured IC50 of COc1cc(N2CCN(C)c3cc(N4CCC(C(=O)NCCO)CC4)c(C#N)cc32)c2cc(C)c(=O)n(C)c2c1 in your reply.
Resp: < 50 nM

Req: Supply measured IC50 of Cc1cc2c(N3CCN(C)c4cc(-c5cnn(C)c5)c(C#N)cc43)cc(OCC(=O)OC(C)(C)C)cc2n(C)c1=O in your reply.
Resp: > 10 nM

Req: Supply measured IC50 of CC(=O)NS(=O)(=O)c1ccc2c(c1)N(c1cccc3c1cc(C)c(=O)n3C)CCN2C in your reply.
Resp: > 10 nM

Req: Supply measured IC50 of Cc1cc2c(N3CCCc4cc(C5CCOC5)c(C(F)F)cc43)nc(N3CC[C@@H](O)C3)cc2n(C)c1=O (some centres unmarked) in your reply.
Resp: < 50 nM

Req: Supply measured IC50 of CNC(=O)[C@@H]1CCN(c2cc3c(cc(C)c(=O)n3C)c(N3CCCc4cc(-c5cnn(C)c5)c(C(F)F)cc43)n2)C1 in your reply.
Resp: < 50 nM
